The measurements presented in this section are drawn from patent US20230322924A1.

Listing of entries alongside the reported MFI at 6 nM.
Biological target: T1, Human CD33 full length (human, UniProt P20138 18-364)
T1 construct: also called huCD33
T1 sequence (P20138 18-364 limits assumed): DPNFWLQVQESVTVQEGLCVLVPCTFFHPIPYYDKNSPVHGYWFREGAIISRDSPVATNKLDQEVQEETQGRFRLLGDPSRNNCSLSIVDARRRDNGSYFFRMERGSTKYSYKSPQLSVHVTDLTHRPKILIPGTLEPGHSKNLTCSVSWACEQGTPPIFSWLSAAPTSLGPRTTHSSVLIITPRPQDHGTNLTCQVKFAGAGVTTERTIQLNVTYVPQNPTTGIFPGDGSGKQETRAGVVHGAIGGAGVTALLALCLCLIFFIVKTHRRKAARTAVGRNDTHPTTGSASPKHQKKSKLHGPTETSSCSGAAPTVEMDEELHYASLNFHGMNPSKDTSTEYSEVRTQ
Assay: flow cytometry on HEK293F cells expressing human CD33
Protocol: The purified antibodies were assessed for binding to stably transfected HEK293F cells expressing human CD33 or cyno CD33 (generation described above) along with the parental HEK293F as negative control. […] 30 μl running buffer containing Sytox Green live/dead dye (ThermoFisher) was added to all wells with cells and the plates were read on an iQue IntelliCyt flow cytometer. […] Antibody binding was assessed by the mean fluorescence intensity in the AF647 channel. […]
testReadout: MFI at 6 nM (MFI)

binder: C33B915 (antibody, V domains shown, OMNIMouse-derived anti-CD33 mAb; same V regions as C33B907; also called C33H255/C33L121; C33F553) VH: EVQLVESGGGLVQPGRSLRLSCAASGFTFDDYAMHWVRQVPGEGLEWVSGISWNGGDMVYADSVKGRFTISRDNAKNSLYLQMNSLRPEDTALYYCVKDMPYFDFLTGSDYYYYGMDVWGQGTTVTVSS VL: SYELTQPPSVSVSPGQTASITCSGDNLGNEHVCWYHQKPGQSPVLVIYQNNKRPSGIPERFSGSNSGNTATLSISGTQATDEADYYCQAWDSTTAVFGGGTKLTVL
measured: 363000
//
binder: C33B912 (antibody, V domains shown, OMNIMouse-derived anti-CD33 mAb; also called C33H252/C33L118; C33F550) VH: EVQLVESGGGLVQPGRSLRLSCAASGFTFDDYAMHWVRQAPGKGLEWVSGIGWSGGSIVYADSVKGRFTISRDNAKNSLYLQMNSLRAEDTALYYCAKDSPYGDFFDYWGQGTLVTVSS VL: DIVMTQSPDSLAVSLGERATINCKSSQTVFYSSNNKNYLAWYQQKPGQPPKLLISWASTRKSGVPDRFSGSGSGTDFTLTVSSLQAEDVAVYYCQHYYSTPYTFGQGTKLEIK
measured: 101000
//
binder: C33B910 (antibody, V domains shown, OMNIMouse-derived anti-CD33 mAb; same V regions as C33B902; also called C33H250/C33L116) VH: EVQLVESGGGLVQPGRSLRLSCAGSGFTFDDYAIHWVRQAPGKGLEWVSGLSWNGGNIGYADSVKGRFTISRDNAKNSLYLQLNSLKTEDTAFYYCAKDSPYGDYFDYWGQGTLVTVSS VL: DIQMTQSPSSEWASVGDRVTITCRASQGISSWLAWYQQKPGKAPKLLIYGASSWQSGVPSRFSGSGSGTDFTLTISSLQPEDFATYYCQQDNSFPYTFGQGTKLEIK
measured: 183
